# testedOn: T1, recombinant human activated Factor VII (FVIIa) (human, UniProt P08709 61-212; P08709 213-466, ten glutamate residues of the Gla domain may be gamma-carboxylated)
# T1 construct: chains tethered by a disulfide bond; also called Factor VIIa; rFVIIa
# T1 sequence 1: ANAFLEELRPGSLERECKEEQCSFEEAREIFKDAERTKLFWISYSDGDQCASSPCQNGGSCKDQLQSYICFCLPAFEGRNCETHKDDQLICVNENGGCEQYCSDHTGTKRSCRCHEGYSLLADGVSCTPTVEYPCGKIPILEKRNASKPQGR
# T1 sequence 2: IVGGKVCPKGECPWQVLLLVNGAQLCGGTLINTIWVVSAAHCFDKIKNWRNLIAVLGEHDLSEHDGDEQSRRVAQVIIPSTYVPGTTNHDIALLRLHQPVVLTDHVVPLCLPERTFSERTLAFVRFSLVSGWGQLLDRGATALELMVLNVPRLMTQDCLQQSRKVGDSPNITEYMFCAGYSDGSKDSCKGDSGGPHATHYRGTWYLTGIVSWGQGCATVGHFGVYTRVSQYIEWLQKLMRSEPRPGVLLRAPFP
# test: BLI (Fortebio)
Kd: recorded values
Dear colleague, please return just the value in nM, with no unit written.

Reference set, count: 2
VH SEQ ID NO 554 / VL SEQ ID NO 470 (antibody, IgG4, V domains shown, humanized 11F2; IgG4 S228P/kappa) VH: QVQLQESGPGLVKPSDTLSLTCAVSGYSISSDSAWSWIRQFPGKGLEWIGYIQYSGSTNYNPSLKSRVTMSVDTSKNQFSLKLSSVTALDTAVYYCARSVNYYGNSFAVGPWGQGTLVTVSS VL: EIVLTQSPATLSLSPGERATLSCRASQGVSDYLHWYQQKPGQAPRLLIKYASQPATGIPARFSGSGSGTDFTLTISSLEPEDFAVYYCQNGHSFPLTFGQGTKLEIK	19
VH SEQ ID NO 626 / VL SEQ ID NO 390 (antibody, IgG4, V domains shown, humanized 11F2; IgG4 S228P/kappa) VH: QVQLQESGPGLVKPSQTLSLTCTVSGYSISSDSAWSWIRQPPGKGLEWIGYIQYSGSTNYNPSLKSRVTISRDTSKNQFSLKLSSVTAADTAVYYCARSVNYYGNSFAVGPWGQGTLVTVSS VL: EIVLTQSPATLSLSPGERATLSCRASQGVSDYLAWYQQKPGEAPRLLIKYASQPATGIPARFSGSGSGTDFTLTISSLEPEDFAVYYCQNGHSFPLTFGQGTKLEIK	27

Now consider a different binder.
// lookup Kd for VH SEQ ID NO 538 / VL SEQ ID NO 382 (antibody, IgG4, V domains shown, humanized 11F2; IgG4 S228P/kappa) VH: QVQLQESGPGLVEPSQTLSLTCTVSGYSITSDSAWSWIRQPPGKKLEWIGYIQYSGSTNYNPSLKSRVTISRDTSKNQFSLKLSSVTAADTAVYYCARSVNYYGNSFAVGYWGQGTLVTVSS VL: EIVLTQSPATLSLSPGERATLSCRASQGLSDYLHWYQQKPGEAPRLLIKYASQPATGIPARFSGSGSGTDFTLTISSLEPEDFAVYYCQNGHSFPLTFGQGTKLEIK
1.2
